Ref: ChEMBL document CHEMBL1156243

experiment: Binding affinity to amyloid beta (1 to 42) fibrils by change in fluorescence at 100 uM after 10 mins
Activity calls are given as the source filed them. How the calls were made is not given here.
The reply should name one outcome from active, inactive

- O=S1(=O)OC(c2ccc(O)cc2)(c2ccc(O)cc2)c2ccccc21: inactive
- O=S(=O)(O)c1cc(S(=O)(=O)O)c2c(/N=N/c3ccccc3)c(O)ccc2c1: inactive
- O=C(O)/C=C/c1cccc(O)c1: inactive
- COc1cc(/C=C/C(=O)NCCCCCCCCNC(=O)/C=C/c2ccc(O)c(OC)c2)ccc1O: inactive
- OCCN1CCN(CCCN2c3ccccc3Sc3ccc(Cl)cc32)CC1: inactive

I would be grateful if you could indicate the recorded call for O=C(/C=C/c1ccccc1)c1ccccc1 .
inactive

// outcome(item) with item = CC(C)OC(=O)C(C)(C)Oc1ccc(C(=O)c2ccc(Cl)cc2)cc1
inactive

Called result for O=C1C[C@@H](c2ccc(O)cc2)Oc2cc(O)cc(O)c21
inactive

What was the test verdict on COc1ccc(/C=C/C(=O)c2ccccc2)cc1 ?
inactive

Just curious, what result did COc1ccc(/C=C/C(=O)c2ccccc2)cc1OC get here?
inactive
